Measured values drawn from patent US20240384350A1 for this set.

TESTED SYSTEM: EGFR S768I/T790M (Homo sapiens, UniProt P00533, S768I/T790M)
Construct: expressed in transfected cells; host or cells: Ba/F3
ASSAY TEXT: Ba/F3 drug screening, Cell Titer Glo, IC50 Mut/WT
Type: cell-based
CONDITION SET: T790M-like-3S, 72 hours
Consider the following compounds; for each one, report its ratio of IC50 for cells with mutant EGFR to IC50 for cells with wildtype EGFR (Mut/WT).
Format: numeric value only, no unit, no commentary.

// query Return reported ratio of IC50 for cells with mutant EGFR to IC50 for cells with wildtype EGFR (Mut/WT) for target or system EGFR S768I/T790M (Homo sapiens, UniProt P00533, S768I/T790M), item "C=CC(=O)Nc1cc(Nc2ncc(C(=O)OC(C)C)c(-c3cn(C)c4ccccc34)n2)c(OC)cc1N(C)CCN(C)C" .
// result 10.82

// query Return reported ratio of IC50 for cells with mutant EGFR to IC50 for cells with wildtype EGFR (Mut/WT) for target or system EGFR S768I/T790M (Homo sapiens, UniProt P00533, S768I/T790M), item "C=CC(=O)Nc1cccc(Oc2nc(Nc3ccc(N4CCN(C)CC4)cc3)nc3ccsc23)c1" .
// result 0.0215

// query Return reported ratio of IC50 for cells with mutant EGFR to IC50 for cells with wildtype EGFR (Mut/WT) for target or system EGFR S768I/T790M (Homo sapiens, UniProt P00533, S768I/T790M), item "C=CC(=O)Nc1cc(Nc2nccc(-c3c[nH]c4ccccc34)n2)c(OC)cc1N(C)CCN(C)C" .
// result 1.619

// query Return reported ratio of IC50 for cells with mutant EGFR to IC50 for cells with wildtype EGFR (Mut/WT) for target or system EGFR S768I/T790M (Homo sapiens, UniProt P00533, S768I/T790M), item "CN(C)C/C=C/C(=O)Nc1cc2c(Nc3ccc(Cl)c(Br)c3)ncnc2cn1" .
// result 60.19

// query Return reported ratio of IC50 for cells with mutant EGFR to IC50 for cells with wildtype EGFR (Mut/WT) for target or system EGFR S768I/T790M (Homo sapiens, UniProt P00533, S768I/T790M), item "C=CC(=O)Nc1cc(Nc2nccc(-n3cc(CN(C)C)c(-c4ccccc4)n3)n2)c(OC)cc1N1CCOCC1" .
// result 0.5236

// query Return reported ratio of IC50 for cells with mutant EGFR to IC50 for cells with wildtype EGFR (Mut/WT) for target or system EGFR S768I/T790M (Homo sapiens, UniProt P00533, S768I/T790M), item "COc1cc2ncnc(Nc3cccc(Cl)c3F)c2cc1OC(=O)N1CCN(C)C[C@H]1C" .
// result 7.218

// query Return reported ratio of IC50 for cells with mutant EGFR to IC50 for cells with wildtype EGFR (Mut/WT) for target or system EGFR S768I/T790M (Homo sapiens, UniProt P00533, S768I/T790M), item "CNC(=O)CN1CCC(Oc2cc3c(Nc4cccc(Cl)c4F)ncnc3cc2OC)CC1" .
// result 54.78
